- assay.system: Cellular tumor antigen p53 (Homo sapiens)
- experiment.notes: TOX21_p53_BLA_p4_ratio: Tox21 HCT-116 p53 Agonism Beta-lactamase Assay, Ratio, Phase 4 (AID 2283601)
Records with an inconclusive call do not appear. Activity calls are given as the source filed them. The calls were made as follows: active = hit-call score of the fitted dose curve at least 0.9, where 1 is the maximum; inconclusive = response in the unintended direction; inactive = score below 0.9.
Outcome codes: yes (1) (active), no (0) (inactive)

compound: C#CC(C)(C)NC(=O)c1cc(Cl)cc(Cl)c1
class: no (0)
//
compound: CCc1cccc(C)c1N(C(=O)CCl)C(C)COC (configuration not stated)
class: no (0)
//
compound: CCCOCC(=Nc1ccc(Cl)cc1C(F)(F)F)n1ccnc1
class: yes (1)
//
compound: CCOP(=S)(Oc1cnc(C(C)(C)C)nc1)OC(C)C (configuration not stated)
class: no (0)
//
compound: CNC(=O)ON=C(SC)C(=O)N(C)C
class: no (0)
//
compound: CSc1nnc(C(C)(C)C)c(=O)n1N
class: no (0)
//
compound: CN1COCN(Cc2cnc(Cl)s2)C1=N[N+](=O)[O-]
class: no (0)
//
compound: COP(=O)(NC(C)=O)SC (configuration not stated)
class: no (0)
//
compound: CCOP(=S)(OCC)Oc1ccc2c(C)c(Cl)c(=O)oc2c1
class: no (0)
//
compound: CCOP(=S)(OCC)OC(Cl)C(Cl)(Cl)Cl (configuration not stated)
class: no (0)
//
compound: CC(C)=CC1C(C(=O)OCN2C(=O)C3=C(CCCC3)C2=O)C1(C)C (configuration not stated)
class: no (0)
//
compound: CCOC(=O)COc1cc(-c2nn(C)c(OC(F)F)c2Cl)c(F)cc1Cl
class: no (0)

###

- experiment.notes: CPHEA_Stoker_NIS_Cytotoxicity: Cytotoxicity Assessment for CPHEA's Radioactive Iodide Uptake (RAIU) Assay for Sodium/Iodide Symporter (NIS) Inhibition, Stoker and Laws Labs (AID 2283897);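 as to AC50: active means loss of ATP signal versus DMSO meaning cytotoxicity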
- Description: CPHEA_Stoker_NIS is a cell-based, single-readout assay that uses hNIS-HEK293T-EPA, a novel human kidney cell line expressing human NIS, with measurements taken at 2 hours after chemical dosing in a 96-well plate. […] A parallel cytoxicity assay (Cell Titer Glo, Promega) was also run in the same cell line.CPHEA_Stoker_NIS_Cytotoxicity is one of 2 assay components measured from the CPHEA_Stoker_NIS assay. […]
The source made the active and inactive calls. The calls were made as follows: active = hit-call score of the fitted dose curve at least 0.9, where 1 is the maximum; inconclusive = response in the unintended direction; inactive = score below 0.9.

molecule: Cc1cc(C2CC2)nc(Nc2ccccc2)n1
AC50: inactive

molecule: CCC(CC)Nc1c([N+](=O)[O-])cc(C)c(C)c1[N+](=O)[O-]
AC50: inactive

molecule: CCOP(=S)(OCC)Oc1ccc2c(C)c(Cl)c(=O)oc2c1
AC50: 27.7 µM (active)

molecule: FC(F)C(F)(F)OCC(Cn1cncn1)c1ccc(Cl)cc1Cl (stereo not given)
AC50: inactive

molecule: N#CSCSC#N
AC50: 41.4 µM (active)

molecule: CCOP(=S)(OCC)SCCSCC
AC50: inactive

molecule: CC1(C(=O)Nc2ccc(O)c(Cl)c2Cl)CCCCC1
AC50: inactive

molecule: CCCCSP(=O)(SCCCC)SCCCC
AC50: inactive

molecule: CCOC(=O)COc1cc(-c2nn(C)c(OC(F)F)c2Cl)c(F)cc1Cl
AC50: inactive

molecule: CCC(=O)Nc1ccc(Cl)c(Cl)c1
AC50: inactive

molecule: CCCSP(=O)(OCC)Oc1ccc(Br)cc1Cl (stereo not given)
AC50: inactive

molecule: CC[C@H](C)[C@H]1O[C@]2(C=C[C@@H]1C)C[C@@H]1C[C@@H](C/C=C(\C)[C@@H](O[C@H]3C[C@H](OC)[C@@H](O[C@H]4C[C@H](OC)[C@@H](NC)[C@H](C)O4)[C@H](C)O3)[C@@H](C)/C=C/C=C3\CO[C@@H]4[C@H](O)C(C)=C[C@@H](C(=O)O1)[C@]34O)O2
AC50: 23 µM (active)

molecule: CON=C(C(=O)OC)c1ccccc1CON=C(C)c1cccc(C(F)(F)F)c1
AC50: inactive

molecule: CC(C)=CC1C(C(=O)OCN2C(=O)C3=C(CCCC3)C2=O)C1(C)C (stereo not given)
AC50: 35.4 µM (active)

molecule: CCOP(=S)(OCC)Oc1ccc([N+](=O)[O-])cc1
AC50: inactive

molecule: CC(C)N(C(=O)SCC(Cl)=C(Cl)Cl)C(C)C
AC50: 39.8 µM (active)

molecule: C#CCC1=C(C)C(OC(=O)C2C(C=C(C)C)C2(C)C)CC1=O (stereo not given)
AC50: inactive

molecule: CSc1nc(NC(C)C)nc(NC(C)C)n1
AC50: inactive

molecule: C[Si](Cn1cncn1)(c1ccc(F)cc1)c1ccc(F)cc1
AC50: inactive

molecule: CSC1=N[C@@](C)(c2ccccc2)C(=O)N1Nc1ccccc1
AC50: inactive
